- Test system: Vero E6 infected with SARS-CoV-2
- procedure.summary: inhibition of SARS-CoV-2 cytopathic effect; higher = more antiviral protection, active = above 15
- experimental.conditions: 100 nM; 48 h
reported.endpoint: inhibition of SARS-CoV-2 cytopathic effect (%)

> print(dat)
                                   compound  result.number
1  CCOC(=O)c1c(C)[nH]c2ccc3c(c12)CN1CCc2cc(OC)ccc2C1O3 (centres undefined)           2.29
2  Nc1nccc2c1ncn2C1C=C(CO)C(O)C1O (centres undefined)           3.16
3                                 CCOC(N)=O          -0.41
4  CC1(C)S[C@@H]2[C@H](NC(=O)[C@H](NC(=O)N3CCNC3=O)c3ccccc3)C(=O)N2[C@H]1C(=O)O           1.05
5  CN(C)CCc1c[nH]c2ccc(C[C@H]3COC(=O)N3)cc12          -1.58
6  Fc1ccc([C@@H]2CCNC[C@H]2COc2ccc3c(c2)OCO3)cc1          -2.05
7  Clc1ccc2c(NCCNc3ccnc4cc(Cl)ccc34)ccnc2c1           5.21
8  CC(C)C[C@H](NC(=O)[C@H](Cc1ccccc1)NC(=O)c1cnccn1)B(O)O           32.8
9  O=C(NCC1(N2CCN(c3ccccc3)CC2)CCOCC1)c1cccnc1Sc1ccccc1              1

Recorded values, source the supplement of paper PMC13380429.
